# target-under-test: UniProt:P16390
# Sequence (P16390 whole entry): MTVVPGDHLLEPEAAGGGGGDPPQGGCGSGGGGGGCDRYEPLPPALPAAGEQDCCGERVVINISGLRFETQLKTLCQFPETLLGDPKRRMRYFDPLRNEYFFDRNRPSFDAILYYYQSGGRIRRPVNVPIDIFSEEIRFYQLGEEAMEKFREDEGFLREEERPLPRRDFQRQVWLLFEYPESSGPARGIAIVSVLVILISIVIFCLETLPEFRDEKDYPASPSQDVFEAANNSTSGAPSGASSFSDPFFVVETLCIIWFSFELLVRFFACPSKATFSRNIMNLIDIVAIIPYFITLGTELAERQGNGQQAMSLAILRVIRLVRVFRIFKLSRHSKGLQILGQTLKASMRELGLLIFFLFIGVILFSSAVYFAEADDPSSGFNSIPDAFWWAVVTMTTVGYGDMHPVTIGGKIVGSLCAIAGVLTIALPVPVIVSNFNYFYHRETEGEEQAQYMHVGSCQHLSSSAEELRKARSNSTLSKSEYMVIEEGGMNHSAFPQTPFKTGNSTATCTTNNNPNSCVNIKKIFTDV
# assay-notes: Patch-clamp of heterologous mouse Kv1.3 expressed in L929 cells
# condition-info: +80 mV
value-kind: pIC50
Lab note: report pIC50 as minus log10 of the concentration in molar units, number only.

Report pIC50 for CC(C)/N=c1\cc2n(-c3ccc(Cl)cc3)c3ccccc3nc-2cc1Nc1ccc(Cl)cc1 [clofazimine, Clofazimine] please.
6.33

---

# target-under-test: human Kv1.5 (Homo sapiens)
# Sequence (P22460 whole entry): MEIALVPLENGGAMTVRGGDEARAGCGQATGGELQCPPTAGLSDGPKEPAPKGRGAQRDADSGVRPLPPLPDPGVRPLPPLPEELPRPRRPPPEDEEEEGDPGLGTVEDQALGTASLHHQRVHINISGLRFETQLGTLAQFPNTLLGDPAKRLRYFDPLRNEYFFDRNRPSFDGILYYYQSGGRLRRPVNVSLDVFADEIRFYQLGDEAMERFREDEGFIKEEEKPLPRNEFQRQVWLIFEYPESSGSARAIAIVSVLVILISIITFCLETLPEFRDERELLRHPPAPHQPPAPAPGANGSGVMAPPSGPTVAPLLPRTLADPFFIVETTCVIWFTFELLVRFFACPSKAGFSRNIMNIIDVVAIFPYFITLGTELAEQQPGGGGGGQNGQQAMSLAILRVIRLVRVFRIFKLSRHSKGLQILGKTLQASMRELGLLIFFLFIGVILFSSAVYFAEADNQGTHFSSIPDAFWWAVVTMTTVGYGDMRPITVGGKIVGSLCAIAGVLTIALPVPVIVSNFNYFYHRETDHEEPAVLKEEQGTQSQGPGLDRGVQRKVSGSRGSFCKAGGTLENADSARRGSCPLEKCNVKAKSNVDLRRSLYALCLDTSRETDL
# assay-notes: Patch-clamp of heterologous human Kv1.5 expressed in MEL cells
# condition-info: inferred from block at 10 μM
value-kind: IC50

Report IC50 for CC(C)/N=c1\cc2n(-c3ccc(Cl)cc3)c3ccccc3nc-2cc1Nc1ccc(Cl)cc1 please.
> 10 µM
